Organism: Rattus norvegicus
assay: DrugMatrix - Regimen: Daily Repeat
Assay type: toxicity, organism-based, Sprague-Dawley
Parameters: regimen Daily Repeat, gender Male, age 6-8 weeks
condition-parameters: in vivo, po, 0 mg/kg, 72 h, tissue Plasma, route oral GAVAGE, dose level Control, time 3 day, […]
Assignment: determine reported CREATININE for the given molecules.
Give bare numbers, in mg/dL.

Example results:
CCC(C)n1ncn(-c2ccc(N3CCN(c4ccc(OCC5COC(Cn6cncn6)(c6ccc(Cl)cc6Cl)O5)cc4)CC3)cc2)c1=O (stereo unspecified); 0.32
O=c1oc2ccccc2c(O)c1Cc1c(O)c2ccccc2oc1=O; 0.16
C[C@@H]1CN(c2c(F)c(N)c3c(=O)c(C(=O)O)cn(C4CC4)c3c2F)C[C@H](C)N1; 0.17
CN(C)c1nc(N(C)C)nc(N(C)C)n1; 0.17
Cc1ccc(-c2cc(C(F)(F)F)nn2-c2ccc(S(N)(=O)=O)cc2)cc1; 0.32
O=C(O)CCCc1ccc(N(CCCl)CCCl)cc1; 0.32
CCOC(=O)C1=C(COCCN)NC(C)=C(C(=O)OC)C1c1ccccc1Cl (stereo unspecified); 0.17
CC(C)C(=O)Nc1ccc([N+](=O)[O-])c(C(F)(F)F)c1 [FLUTAMIDE]; 0.16
Cc1oncc1C(=O)Nc1ccc(C(F)(F)F)cc1 [LEFLUNOMIDE]; 0.33
OC(Cn1cncn1)(Cn1cncn1)c1ccc(F)cc1F; 0.32

Now take the following molecule into account.
Please look at this molecule and report its CREATININE: Cc1noc(NS(=O)(=O)c2ccc(N)cc2)c1C 0.17
